Record form. Attribute: T/C. Fill in for each entry.
Tested on: L1210 leukemia ip in BDF1 mice, survival T/C
Test: NCI In Vivo Anticancer Drug Screen. Data for tumor model L1210 Leukemia (intraperitoneal) in B6D2F1 (BDF1) mice
Details: endpoint: mean survival time; dose: 200.0 mg/kg/injection; schedule: Q01DX009 (ip); vehicle: Klucel (hydroxypropylcellulose) (HPC); higher = longer survival
Toxic doses and inconclusive results are not listed.

Recorded results for 2 compounds are shown here.
# entry-smiles, measurement-label, reported-value
data = [
    ("COc1ccc2c(c1)CN(S(=O)(=O)c1ccc(C)cc1)C=CC2=O", "T/C", "104 % of control"),
    ("CCOC(=O)c1cc(=O)c2cc(S(=O)(=O)F)ccc2[nH]1", "T/C", "97 % of control"),
]

Memo: "O=C(COc1ccc(Cl)cc1)N(c1ccccc1)C1CCCCC1" , reported T/C: 96 % of control

* * *

Record form. Attribute: T/C. Fill in for each entry.
System: L1210 leukemia ip in BDF1 mice, survival T/C
Assay: NCI In Vivo Anticancer Drug Screen. Data for tumor model L1210 Leukemia (intraperitoneal) in B6D2F1 (BDF1) mice
Details: endpoint: mean survival time; dose: 100.0 mg/kg/injection; schedule: Q04DX003 (ip); vehicle: Klucel (hydroxypropylcellulose) (HPC); higher = longer survival
Toxic doses and inconclusive results are not listed.

Recorded results for 5 compounds are shown here.
# entry-smiles, measurement-target, measurement-label, reported-value
rows = [
    ("CCOC(=O)C(C(=O)c1ccccc1)=P(c1ccccc1)(c1ccccc1)c1ccccc1", "L1210 leukemia ip in BDF1 mice, survival T/C", "T/C", "100 % of control"),
    ("CC(C)n1cnc2nc[nH]c2c1=S", "L1210 leukemia ip in BDF1 mice, survival T/C", "T/C", "92 % of control"),
    ("O=C(Nc1ccccc1C(F)(F)F)OCCOc1ccccc1Cl", "L1210 leukemia ip in BDF1 mice, survival T/C", "T/C", "92 % of control"),
    ("CCOC(=O)c1cnc(C)nc1Nc1ccccc1C", "L1210 leukemia ip in BDF1 mice, survival T/C", "T/C", "88 % of control"),
    ("CCCCCCCSCCSCCSCCCCCCC", "L1210 leukemia ip in BDF1 mice, survival T/C", "T/C", "101 % of control"),
]

Go through the items and report each one's T/C.
1. O=[N+]([O-])c1cc([N+](=O)[O-])c(NN(c2ccc(Cl)cc2)c2ccc(Cl)cc2)c([N+](=O)[O-])c1
2. Nc1ccccc1S(=O)(=O)Nc1ccccc1

[reply]
1: 98 % of control; 2: 92 % of control

Go through the items and report each one's T/C.
1. CC(C)CCS(=O)(=O)OCCCCOS(=O)(=O)CCC(C)C
2. O=[N+]([O-])c1cccc(C=Nc2cccc(C(F)(F)F)c2)c1

[reply]
105 % of control
110 % of control

* * *

Test system: L1210 leukemia ip in BDF1 mice, survival T/C
Assay: NCI In Vivo Anticancer Drug Screen. Data for tumor model L1210 Leukemia (intraperitoneal) in B6D2F1 (BDF1) mice
Conditions: endpoint: mean survival time; dose: 200.0 mg/kg/injection; schedule: Q04DX003 (ip); vehicle: other; higher = longer survival
Inconclusive results and toxic doses are left out.
Record form. Attribute: T/C. Fill in for each entry.

Go through the items and report each one's T/C.
1. CN(C)N=Nc1ccccc1C(=O)O
2. O=C(c1ccc(F)cc1)c1ccc2ccccc2c1

[reply]
1: 113 % of control; 2: 94 % of control

Go through the items and report each one's T/C.
1. CCOC(=O)C1C2C=CC=CC(=O)C21 (stereo unspecified)
2. COc1ccc2[nH]ccc2c1
3. Cc1ccc(C)n1Cc1ccccc1
4. O=[N+]([O-])c1ccc(N=C(Nc2ccc([N+](=O)[O-])cc2)c2ccccc2)cc1

[reply]
95 % of control
105 % of control
98 % of control
102 % of control

* * *

System: L1210 leukemia ip in BDF1 mice, survival T/C
Assay: NCI In Vivo Anticancer Drug Screen. Data for tumor model L1210 Leukemia (intraperitoneal) in B6D2F1 (BDF1) mice
Conditions: endpoint: mean survival time; dose: 100.0 mg/kg/injection; schedule: Q01DX009 (ip); vehicle: saline with Tween-80; higher = longer survival
Toxic doses and inconclusive results are not listed.
measurement-label: T/C

# compound, T/C
records = [
    ("O=C(CNC(=O)c1ccccc1)N/N=C/c1cccc([N+](=O)[O-])c1", "88 % of control"),
    ("O=C(O)c1ccc([N+](=O)[O-])o1", "89 % of control"),
    ("O=S(=O)(Nc1ccc(O)c(Cl)c1)c1ccccc1", "100 % of control"),
    ("O=S(=O)(O)C(O)c1cccc2ccccc12 (configuration not stated)", "105 % of control"),
    ("CCCCCCCCC1SC1CCCCCCCC(=O)OCCCOC(=O)CCCCCCCC1SC1CCCCCCCC (configuration not stated)", "98 % of control"),
    ("CCCCCC(=O)OCCOC(=O)CCCCC", "103 % of control"),
]

Go through the items and report each one's T/C.
1. O=c1ccc2ccccc2n1Cc1ccc2ccccc2n1
2. CCOC(=O)CNC(=O)NCCc1ccccc1
3. O=C(COc1ccccc1)N/N=C/c1cccc([N+](=O)[O-])c1
4. COc1ccc(O)c(C=O)c1

[reply]
104 % of control
112 % of control
86 % of control
108 % of control

Go through the items and report each one's T/C.
1. CC(=O)OCC(=O)c1cc(C)n(C)c(=O)c1CN1C(=O)c2ccccc2C1=O
2. O=c1ccnc[nH]1
3. O=C1C=CC(=Nc2ccc(Cl)cc2)O1
4. Cc1cc(C)c(S(=O)(=O)c2ccc(F)cc2)c(C)c1

[reply]
107 % of control
92 % of control
104 % of control
98 % of control

* * *

Tested on: L1210 leukemia ip in BDF1 mice, survival T/C
Assay: NCI In Vivo Anticancer Drug Screen. Data for tumor model L1210 Leukemia (intraperitoneal) in B6D2F1 (BDF1) mice
Conditions: endpoint: mean survival time; dose: 400.0 mg/kg/injection; schedule: Q04DX002 (ip); vehicle: saline with Tween-80; higher = longer survival
Inconclusive results and toxic doses are left out.
Record form. Attribute: T/C. Fill in for each entry.

Recorded results for 5 compounds are shown here.
# compound, measurement-label, reported-value
records = [
    ("CCC[CH2][Tl]([Br])[CH2]CCC", "T/C", "106 % of control"),
    ("CCNc1nnc(N=Nc2ccccc2)s1", "T/C", "98 % of control"),
    ("Cc1cc(Cl)cc(Cl)c1OCC(=O)Nc1cc(Cl)ccc1Cl", "T/C", "86 % of control"),
    ("[Co+3].[NH-]CC(=O)O.[NH-]CC(=O)O.[NH-]CC(=O)O", "T/C", "115 % of control"),
    ("Cc1ccc(NC(=O)COc2c(C)cc(Cl)cc2Cl)cc1", "T/C", "93 % of control"),
]

Go through the items and report each one's T/C.
1. CCC[CH2][Sn]([c]1ccccc1)([c]1ccccc1)[c]1ccccc1
2. O=C1CCC(Cc2cccc3ccccc23)N1 (configuration not stated)

[reply]
1: 97 % of control; 2: 94 % of control

* * *

Test system: L1210 leukemia ip in BDF1 mice, survival T/C
Experiment: NCI In Vivo Anticancer Drug Screen. Data for tumor model L1210 Leukemia (intraperitoneal) in B6D2F1 (BDF1) mice
Settings: endpoint: mean survival time; dose: 100.0 mg/kg/injection; schedule: Q01DX001 (ip); vehicle: Klucel (hydroxypropylcellulose) (HPC); higher = longer survival
Inconclusive results and toxic doses are left out.
measurement-label: T/C

Go through the items and report each one's T/C.
1. CC(C)(C)C1=CC(=O)N2CC=CCC2(C#N)C1=O (stereo unspecified)
2. NS(=O)(=O)c1ccc(NC(=O)Nc2cccc(CNC(=O)Cc3ccc(Cl)cc3C(=O)O)c2)cc1
3. CC1(C(=O)c2ccccc2)CN(C(C)(C)C)C1c1ccccc1 (stereo unspecified)
4. Cc1cccc(NC(=O)Nc2ccccc2F)n1
5. N#CCCCCC(=O)c1ccc(O)cc1O

[reply]
99 % of control
109 % of control
95 % of control
96 % of control
105 % of control

Memo: "Nc1cccc(OCCCOc2ccccc2)c1" , reported T/C: 94 % of control

* * *

Tested on: L1210 leukemia ip in BDF1 mice, survival T/C
Assay: NCI In Vivo Anticancer Drug Screen. Data for tumor model L1210 Leukemia (intraperitoneal) in B6D2F1 (BDF1) mice
Conditions: endpoint: mean survival time; dose: 50.0 mg/kg/injection; schedule: Q04DX002 (ip); vehicle: saline; higher = longer survival
Toxic doses and inconclusive results are not listed.
Record form. Attribute: T/C. Fill in for each entry.

Recorded results for 4 compounds are shown here.
# compound, T/C
data = [
    ("CC(=O)OC1CC2(CO2)C2CC=C(C)C2C2OC(=O)C(C)C12 (stereo not given)", "95 % of control"),
    ("CCCCC(=O)N1C(C)CCCC1C (stereo not given)", "91 % of control"),
    ("CCC(=O)NC(CC(C)C)C(=O)NC(CC(C)C)C(=O)NC(C=O)CCCN=C(N)N (stereo not given) (tested in a mixture with another compound)", "91 % of control"),
    ("CCCNCCC[P+](c1ccccc1)(c1ccccc1)c1ccccc1", "98 % of control"),
]

Field: next compound
So the reported T/C for CCCC(CCN(C)C)(CNC(=O)CN(CC)CC)c1cccc2ccccc12 (stereo not given) , on L1210 leukemia ip in BDF1 mice, survival T/C, turned out to be 105 % of control
